test system: Aβ production in 293 751 SWE and CHO 751 SWE cells (transfected with APP-751 Swedish mutation); assay: Aβ production inhibition activity in cells (Aβ ELISA of conditioned media, normalized for cytotoxicity by MTT); type: cell-based; conditions: 10 μg/ml, % of drug-free control, normalized to MTT
measured.attribute: inhibition at 10 µg/mL

Query :: What value of measured inhibition at 10 µg/mL is listed for CCCc1c(COc2ccc(CN(O)C(=S)NCc3ccccc3)cc2)ccc(C(C)=O)c1O ?
Result :: 42%

Query :: Endpoint output: inhibition at 10 µg/mL of Cc1ccc(CNC(=S)N(O)C(C)c2cccc(Oc3ccc(C(C)(C)C)cc3)c2)cc1C (stereo not shown) . Value?
Result :: 62%

Query :: Item under review: CC(C)(C)c1ccc(Oc2ccccc2NC(=S)NCc2ccccc2)cc1 . Reported inhibition at 10 µg/mL?
Result :: 52%

Query :: Which inhibition at 10 µg/mL reading was recorded for the molecule Cc1nnc(NC(=O)Nc2cccc(Cl)c2)s1 ?
Result :: 47%

---

tested on: Aβ production in 293 751 SWE and CHO 751 SWE cells (transfected with APP-751 Swedish mutation); assay: Aβ production inhibition activity in cells (Aβ ELISA of conditioned media, normalized for cytotoxicity by MTT); assay type: cell-based; conditions: 10 μg/ml, % of drug-free control, normalized to MTT
measured.attribute: inhibition at 10 µg/mL (%)
Please state the figure in %; there is no need to write the unit.

# count of solved cases: 3
>  <compound>
CC(NC(=S)N(O)C(C)c1cccc(Oc2ccc(C(C)(C)C)cc2)c1)c1ccccc1 (stereo not drawn) [Compound 13]

>  <measurement.unit>
%

>  <inhibition at 10 µg/mL>
46

$$$$
>  <compound>
O=C(Nc1ccc(Cl)c(Cl)c1)Nc1ncccn1 [Compound 138]

>  <measurement.unit>
%

>  <inhibition at 10 µg/mL>
7

$$$$
>  <compound>
CCCc1cc(C(C)(C)C)ccc1Oc1ccc(NC(=S)NCc2cccc(C)c2)cc1 [Compound 194]

>  <measurement.unit>
%

>  <inhibition at 10 µg/mL>
31

$$$$

Query :: So what does the record say about inhibition at 10 µg/mL for COC(=O)c1ccc(NC(=O)Nc2ccc(Cl)c(C(F)(F)F)c2)cc1OC [Compound 165] ?
Result :: 42

---

test system: Aβ production in 293 751 SWE and CHO 751 SWE cells (transfected with APP-751 Swedish mutation); experiment: Aβ production inhibition activity in cells (Aβ ELISA of conditioned media, normalized for cytotoxicity by MTT); assay type: cell-based; settings: 10 μg/ml, % of drug-free control, normalized to MTT
Classification by inhibition at 10 µg/mL | ranges: class 0: < 9%; class 1: ≥ 9% and < 30%; class 2: ≥ 30%

Completed entries (count: 3):
>  <molecule>
Cc1ccc(CNC(=S)Nc2ccccc2Oc2ccc(C(C)(C)C)cc2)cc1C

>  <category>
class 2

$$$$
>  <molecule>
CC(c1cccc(Oc2ccc(C(C)(C)C)cc2)c1)N(O)C(=S)NCc1ccc(Cl)c(Cl)c1 (stereo not drawn)

>  <category>
class 2

$$$$
>  <molecule>
Cc1nnc(NC(=O)Nc2ccccc2F)s1

>  <category>
class 0

$$$$

Query :: Which bin should I file CCCc1cc(C(C)(C)C)ccc1Oc1ccc(NC(=S)Nc2ccc(Cl)c(C(F)(F)F)c2)cc1 under?
Result :: class 1

Query :: Please classify: CSc1ccc(NC(=O)Nc2ccc(Cl)cc2Cl)cc1
Result :: class 0

Query :: Note: place this molecule into its band. Item: CNC(=O)N(C)c1nnc(Br)s1
Result :: class 1

Query :: Any idea which band CCCCCCNC(=S)N(O)C(CCCCCC)c1cccc(Oc2ccc(C(C)(C)C)cc2)c1 (stereo not drawn) is in?
Result :: class 0

Query :: Class? Entry: ON(Cc1ccc(OCc2c(Cl)cccc2Cl)cc1)C(=S)NCc1ccccc1
Result :: class 1

Query :: Into which category would you place CC(C)(C)c1ccc(-c2ccc(CN(O)C(=S)NCc3ccccc3)cc2)cc1 ?
Result :: class 1

Query :: Into which bin does this molecule go? CC(C)(C)OC(=O)N1CCCCC1CNC(=S)Nc1ccc(Oc2ccc(C(C)(C)C)cc2)cc1 (stereo not drawn)
Result :: class 2

Query :: Could you place CCCCCCNC(=S)N(O)Cc1ccc(-c2ccc(C(C)(C)C)cc2)cc1 in its proper category? Many thanks.
Result :: class 1

Query :: Entry CC(NC(=S)NCc1ccccc1)c1cccc(Oc2ccccc2)c1 (stereo not drawn) belongs to which category?
Result :: class 0

Query :: Category lookup for the molecule CCCCCCNC(=S)Nc1ccc(C(=O)c2ccccc2)c(O)c1CCC
Result :: class 2

---

Overview of recorded IC50 for various molecules
system: Aβ production in 293 751 SWE and CHO 751 SWE cells (transfected with APP-751 Swedish mutation); experiment: Aβ production inhibition activity in cells (Aβ ELISA of conditioned media, normalized for cytotoxicity by MTT); format: cell-based; conditions: 2 h pretreatment + 2 h incubation
# output: bare number, implied unit µM

Here are 5 molecules together with their reported answers.
>  <molecule>
CC(c1cccc(Oc2ccc(C(C)(C)C)cc2)c1)N(O)C(=S)NCc1ccc(Cl)cc1 (stereo not shown)

>  <IC50, µM>
11.7

$$$$
>  <molecule>
CC(c1cccc(Oc2ccc(C(C)(C)C)cc2)c1)N(O)C(=S)NCc1ccc(Cl)cc1Cl (stereo not shown)

>  <IC50, µM>
5.7

$$$$
>  <molecule>
CCCc1cc(C(C)(C)C)ccc1Oc1ccc(NC(=S)Nc2cccc(C(F)(F)F)c2)cc1

>  <IC50, µM>
11

$$$$
>  <molecule>
COC(=O)c1sc2ccccc2c1C(=O)Nc1ccc(Cl)c(Cl)c1

>  <IC50, µM>
15.2

$$$$
>  <molecule>
CC(C)(C)c1ccccc1Oc1ccc(NC(=S)Nc2cccc(C(F)(F)F)c2)cc1

>  <IC50, µM>
7.6

$$$$

Query :: Endpoint output: IC50 of CC(C)(C)c1ccc(Oc2cccc(CN(O)C(=S)NCc3ccc(Cl)c(Cl)c3)c2)cc1 . Value?
Result :: 4.2

Query :: Query (molecule): CC(C)(C)c1ccc(Oc2ccc(NC(=S)NCc3ccc(F)cc3)cc2)cc1 ; field requested: IC50
Result :: 5.6

Query :: // returns reported IC50 for input CCCCCCNC(=S)Nc1ccc(Oc2ccc(C(C)(C)C)cc2)cc1
Result :: 10.6

Query :: Fill in the blank: the reported IC50 of CC(C)(C)c1cccc(Oc2cccc(NC(=S)Nc3ccc(Cl)c(C(F)(F)F)c3)c2)c1 is ____.
Result :: 3.8

Query :: Endpoint output: IC50 of O=C(Nc1ccc(Cl)c(Cl)c1)Nc1cccc2ncccc12 . Value?
Result :: 17.8

Query :: Find the recorded IC50 belonging to S=C(Nc1ccc(Cl)cc1)Nc1ccc(Cl)c(Cl)c1 and report it.
Result :: 6.6

Query :: Item under review: CCCC(c1cccc(Oc2ccc(C(C)(C)C)cc2)c1)N(O)C(=S)NCc1ccc(Cl)c(Cl)c1 (stereo not shown) . Reported IC50?
Result :: 10

Query :: Would you kindly share the measured IC50 for CSc1cc(Cl)c(NC(=O)Nc2cccc(Cl)c2)cc1Cl ?
Result :: 10.5

---

inhibition at 10 µg/mL listing for selected compounds.
system: Aβ production in 293 751 SWE and CHO 751 SWE cells (transfected with APP-751 Swedish mutation); test: Aβ production inhibition activity in cells (Aβ ELISA of conditioned media, normalized for cytotoxicity by MTT); assay type: cell-based; settings: 10 μg/ml, % of drug-free control, normalized to MTT
Reply with just the number (in %).

>  <compound>
CSc1ccc(NC(=O)Nc2cc(Cl)c(Cl)cc2C)cc1

>  <inhibition at 10 µg/mL [%]>
48

$$$$

Query :: For the compound CC(C)(C)c1ccc(S(=O)(=O)c2cccc(CN(O)C(=S)NCc3ccccc3)c2)cc1 , what inhibition at 10 µg/mL is on record?
Result :: 25

Query :: For the compound shown here, CC(c1cccc(Oc2ccc(C(C)(C)C)cc2)c1)N(O)C(=S)NC(c1ccccc1)c1ccccc1 (stereo not drawn) , give the reported inhibition at 10 µg/mL.
Result :: 44

Query :: Can you share its inhibition at 10 µg/mL? I mean this compound: CC(C)(C)c1cccc(Oc2ccc(NC(=S)Nc3ccccc3C(F)(F)F)cc2)c1
Result :: 37

Query :: Look up inhibition at 10 µg/mL: CC(C)(C)c1ccccc1Oc1ccc(NC(=S)Nc2ccc(Cl)c(C(F)(F)F)c2)cc1
Result :: 66

Query :: Find the recorded inhibition at 10 µg/mL belonging to ON(Cc1ccc(-c2ccccc2)cc1)C(=S)NCc1ccc(Cl)c(Cl)c1 and report it.
Result :: 13

Query :: Which inhibition at 10 µg/mL is listed for CC(C)(C)c1ccc(Oc2ccc(NC(=S)Nc3ccc(Cl)cc3)cc2)cc1 ?
Result :: 33

Origin of values: patent US5814646A
